tested on: Escherichia coli; assay: Inhibition of Escherichia coli GR19N NDH2 assessed as […] reductase activity at 100 uM relative to control
Activity calls are given as the source filed them. The rule behind the calls is not given here.
observable: inhibition

Known results for compounds:
* COc1ccc(CNC(=O)c2ccc(C)cc2)cc1OC | inactive
* CCCCCCCCCCCCNCc1ccc(OC)c(OC)c1 | inactive
* CCCCCCCCCCCC(=O)NCc1ccc(O)c(OC)c1 | 70%
* CCCCCCCCCCCC(=O)NCc1cccc(OC)c1OC | inactive
* CCCCCCCCCCCC(=O)NCc1ccccc1OC | inactive
* COc1cc(CNC(=O)CCCC/C=C/C(C)C)ccc1O | 20%
* CCCCCCCCCCCCNC(=O)c1ccc(OC)c(OC)c1 | inactive
* COc1ccc(CNC(=O)c2ccc(Oc3ccc(C)cc3)cc2)cc1OC | inactive

# input compound: CCCCc1ccc(Oc2ccc(C(=O)NCc3ccc(OC)c(OC)c3)cc2)cc1 ; wanted: its inhibition 60%

Similarly, C/C=C(\C)[C@H](O)[C@H](C)/C=C(C)/C=C/C/C(C)=C/Cc1nc(OC)c(OC)c(O)c1C ? 50%

Similarly, CCCCCCCCc1ccc(C(=O)NCc2ccc(OC)c(OC)c2)cc1 ? 50%

Similarly, COc1ccc(CNC(=O)c2ccc(Oc3ccc(C(C)(C)C)cc3)cc2)cc1OC ? 60%

Similarly, CCCCCCCCCCCC(=O)NCc1ccc(OC)cc1 ? 80%

Similarly, CCCCCCCCCCCCC(=O)Nc1ccc(OC)c(OC)c1 ? inactive

Similarly, Cc1nn(C)c(Oc2ccccc2)c1/C=N/OCc1ccc(C(=O)OC(C)(C)C)cc1 ? 60%

Similarly, CCCCCCCCCCNC(=O)CCc1ccc(OC)c(OC)c1 ? 40%

Similarly, CCCCCCCCCCCC(=O)NCc1ccc(C)c(C)c1 ? 60%

Similarly, CCCCCCCCCCOc1ccc(C(=O)NCc2ccc(OC)c(OC)c2)cc1 ? 70%

Similarly, CCCCCCCCCC(=O)NCCCc1ccc(OC)c(OC)c1 ? 40%

Similarly, COc1ccc(CNC(=O)c2cccc3ccccc23)cc1OC ? inactive

Similarly, COc1ccc(CNC(=O)c2ccccc2)cc1OC ? inactive
